Kindly supply the reported inhibition at 40 ppm values for the records listed here.
System: Pyricularia oryzae
Test: microbe, parasite or virus in culture
Assay type: cell-based
Conditions: Pyricularia oryzae, 72 h, read-out: Percent Fungus Growth Inhibition, PO, 40 ppm, 72 hours
Numbers only, in %.

As a guide, the following entries are already answered.
# Molecule, Readout kind, Value observed
data = [
    ("CC(=O)c1ccc(Oc2nsnc(Cl)c2=O)cc1", "inhibition at 40 ppm", 89),
    ("CC(=O)Nc1cccc(Oc2nsnc(Cl)c2=O)c1", "inhibition at 40 ppm", 68),
    ("COc1ccc(Oc2nsnc(Cl)c2=O)cc1", "inhibition at 40 ppm", 63),
    ("N#Cc1c(Cl)c(Cl)c(Cl)c(C#N)c1Cl [Chlorothalonil, reference compound]", "inhibition at 40 ppm", 48),
    ("O=c1c(Cl)nsnc1Oc1ccccc1Br", "inhibition at 40 ppm", 100),
]

List inhibition at 40 ppm for every entry below, keeping the order given.
1. O=c1c(Cl)nsnc1Oc1ccc(Cl)cc1
2. O=c1c(Cl)nsnc1Oc1c(Cl)cc(Cl)cc1Cl
3. N#Cc1ccc(Oc2nsnc(Cl)c2=O)cc1

Result:
1. 85
2. 90
3. 77

List inhibition at 40 ppm for every entry below, keeping the order given.
1. Cc1ccc(Oc2nsnc(Cl)c2=O)c(Br)c1
2. Nc1ccc(Oc2nsnc(Cl)c2=O)cc1
3. O=c1c(Cl)nsnc1Oc1ccc(Cl)c(Cl)c1
4. N#CCc1ccc(Oc2nsnc(Cl)c2=O)cc1
5. O=c1c(Cl)nsnc1Oc1ccc([N+](=O)[O-])cc1
6. O=c1c(Cl)nsnc1Oc1ccc(F)cc1
7. Cc1cccc(C)c1Oc1nsnc(Cl)c1=O

Result:
61
100
41
100
93
62
100

----------
Test system: Uromyces phaseoli
Test: whole plant or invertebrate
Details: foliar, 24 h, read-out: Percent Disease Control, curative, bean rust
Readout kind: pest or weed control at 150 ppm (%)
Answers are plain numbers, in %.

As a guide, the following entries are already answered.
# Smi, pest or weed control at 150 ppm / %
data = [
    ("O=c1c(Cl)nsnc1Oc1ccc(Cl)c(Cl)c1", 0),
    ("Cc1cc(Oc2nsnc(Cl)c2=O)ccc1Cl", 0),
    ("O=c1c(Cl)nsnc1Cl", 0),
    ("Cc1cccc(C)c1Oc1nsnc(Cl)c1=O", 0),
]

List pest or weed control at 150 ppm for every entry below, keeping the order given.
1. O=c1c(Cl)nsnc1Oc1cccc(Cl)c1
2. O=c1c(Cl)nsnc1Oc1ccc(Cl)cc1Cl
3. O=C(Nc1ccccc1)Oc1ccc(Oc2nsnc(Cl)c2=O)cc1
4. O=c1c(Cl)nsnc1Oc1cccc(C(F)(F)F)c1

Result:
[90, 100, 0, 0]

Request: Find the recorded pest or weed control at 150 ppm belonging to Cc1cc(Cl)ccc1Oc1nsnc(Cl)c1=O and report it.
Result: 0

----------
Test system: Alternaria solani
Experiment: Mycelial growth test
Format: cell-based
Settings: Alternaria solani, 72 h, AS, 5 ppm, read-out: Percent Fungus Growth Inhibition
Readout kind: inhibition at 5 ppm (%)
Numbers only, in %.

As a guide, the following entries are already answered.
# Compound, Units text, inhibition at 5 ppm
data = [
    ("Nc1ccc(Oc2nsnc(Cl)c2=O)cc1 [Compound 26]", "%", 60),
    ("O=c1c(Cl)nsnc1Oc1ccc(Cl)c(Cl)c1 [Compound 16]", "%", 38),
    ("Cc1ccc(Oc2nsnc(Cl)c2=O)cc1 [Compound 3]", "%", 19),
    ("O=c1c(Cl)nsnc1Oc1cc(Cl)cc(Cl)c1 [Compound 20]", "%", 59),
    ("O=C(O)Cc1ccccc1Oc1nsnc(Cl)c1=O [Compound 45]", "%", 4),
]

List inhibition at 5 ppm for every entry below, keeping the order given.
1. CCOC(=O)c1ccc(Oc2nsnc(Cl)c2=O)cc1 [Compound 7]
2. CC(=O)Nc1ccc(Oc2nsnc(Cl)c2=O)cc1 [Compound 8]
3. CC(=O)c1ccccc1Oc1nsnc(Cl)c1=O [Compound 49]
4. O=C(Nc1ccccc1)Oc1ccc(Oc2nsnc(Cl)c2=O)cc1 [Compound 37]
5. Cc1ccc(Cl)c(Oc2nsnc(Cl)c2=O)c1 [Compound 56]
6. O=c1c(Cl)nsnc1Oc1c(Cl)c(Cl)c(Cl)c(Cl)c1Cl [Compound 31]
7. Cc1ccccc1Oc1nsnc(Cl)c1=O [Compound 22]

Result:
1. 54
2. 38
3. 100
4. 46
5. 52
6. 48
7. 63

Request: Find the recorded inhibition at 5 ppm belonging to O=c1c(Cl)nsnc1Oc1c(Cl)cccc1Cl [Compound 18] and report it.
Result: 69
